Values compiled from PubChem BioAssay AID1963972.

Tested on: 945468-187-T-J2-PDC spheroids viability;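 also: spheroids exposed to compounds for seven days before reading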
Test: Anticancer human tumor 945468-187-T-J2-PDC patient-derived rectal carcinoma cell line growth inhibition [PI3K]
Conditions: curve of first compound; second compound 0.00316 µM; spheroids with HUVEC and MSC
pIC50: −log10 of the molar value.
Recorded pIC50 by entry

# Molecule, Target Under Test, pIC50
records = [
    ("C=CC(=O)N1CCN(c2nc(=O)n(-c3c(C)ccnc3C(C)C)c3nc(-c4c(O)cccc4F)c(F)cc23)C(C)C1 (stereo unspecified) + COc1c(OCCCN2CCOCC2)ccc2c3n(c(=NC(=O)c4cnc(N)nc4)nc12)CCN3", "945468-187-T-J2-PDC spheroids viability", "< 5.00"),
    ("C[C@@H](NC(=O)c1ncnc(N)c1Cl)c1ncc(C(=O)Nc2cc(C(F)(F)F)c(Cl)cn2)s1 + COc1c(OCCCN2CCOCC2)ccc2c3n(c(=NC(=O)c4cnc(N)nc4)nc12)CCN3", "945468-187-T-J2-PDC spheroids viability", "< 5.00"),
    ("Cn1nccc1Nc1nccc(-c2ccn(C(CO)c3ccc(Cl)c(F)c3)c(=O)c2)n1 (stereo unspecified) + CC(Nc1ccc2c(c1)OCCn1cc(N3C(=O)OCC3C(F)F)nc1-2)C(N)=O", "945468-187-T-J2-PDC spheroids viability", "< 5.00"),
    ("CC1(C)CCC(Nc2ncc(C(F)(F)F)c(-c3c[nH]c4c(P(C)(C)=O)c(C#N)ccc34)n2)CN1 (stereo unspecified) + CC(Nc1ccc2c(c1)OCCn1cc(N3C(=O)OCC3C(F)F)nc1-2)C(N)=O", "945468-187-T-J2-PDC spheroids viability", 6.10),
    ("Cn1ncc(Cl)c1-c1cc(C(=O)NC(CN)Cc2cccc(F)c2)sc1Cl (stereo unspecified) + CC(Nc1ccc2c(c1)OCCn1cc(N3C(=O)OCC3C(F)F)nc1-2)C(N)=O", "945468-187-T-J2-PDC spheroids viability", "< 5.00"),
    ("CC(C)NCC(C(=O)N1CCN(c2ncnc3c2C(C)CC3O)CC1)c1ccc(Cl)cc1 (stereo unspecified) + COc1c(OCCCN2CCOCC2)ccc2c3n(c(=NC(=O)c4cnc(N)nc4)nc12)CCN3", "945468-187-T-J2-PDC spheroids viability", "< 5.00"),
    ("C[C@@H](NC(=O)c1ncnc(N)c1Cl)c1ncc(C(=O)Nc2cc(C(F)(F)F)c(Cl)cn2)s1 + CC(Nc1ccc2c(c1)OCCn1cc(N3C(=O)OCC3C(F)F)nc1-2)C(N)=O", "945468-187-T-J2-PDC spheroids viability", "< 5.00"),
    ("C#Cc1c(F)ccc2cc(O)cc(-c3ncc4c(N5CC6CCC(C5)N6)nc(OCC56CCCN5CC(F)C6)nc4c3F)c12 (stereo unspecified) + COc1c(OCCCN2CCOCC2)ccc2c3n(c(=NC(=O)c4cnc(N)nc4)nc12)CCN3", "945468-187-T-J2-PDC spheroids viability", "< 5.00"),
    ("CC(Cn1ccc(-c2ccc(C#N)c(Cl)c2)n1)NC(=O)c1cc(C(C)O)[nH]n1 (stereo unspecified) + COc1c(OCCCN2CCOCC2)ccc2c3n(c(=NC(=O)c4cnc(N)nc4)nc12)CCN3", "945468-187-T-J2-PDC spheroids viability", "< 5.00"),
    ("Cn1cnc2c(F)c(Nc3ccc(Br)cc3Cl)c(C(=O)NOCCO)cc21 + COc1c(OCCCN2CCOCC2)ccc2c3n(c(=NC(=O)c4cnc(N)nc4)nc12)CCN3", "945468-187-T-J2-PDC spheroids viability", "< 5.52"),
    ("CC(C)n1nc(-c2ccc3oc(N)nc3c2)c2c(N)ncnc21 + COc1c(OCCCN2CCOCC2)ccc2c3n(c(=NC(=O)c4cnc(N)nc4)nc12)CCN3", "945468-187-T-J2-PDC spheroids viability", "< 7.00"),
]
